# Target under test: system Xc^− (Homo sapiens, UniProt Q9UPY5)
# Method summary: Cystine-induced glutamate release assay
# Assay type: cell-based
# Set-up: endogenous in cells; host or cells: H4 cells
# Condition context: H4 cells, sodium-free HEPES buffer, 50 μM L-Cystine, 2 hours, Amplex Red glutamate readout; read-out: pIC50 Cystine-induced glutamate release assay (converted)
Value kind: IC50

Use the examples below as a reference point.
Cc1cc2c(c(F)n1)-c1cccnc1[C@H](C)C(=O)N2CC(=O)Nc1ccc(C(F)(F)F)cc1 (single isomer, unassigned) [#191]    100 to 501 nM
Cc1cc2c(c(F)n1)-c1ncc(F)cc1C(C)C(=O)N2CC(=O)Nc1ccc(Cl)c(F)c1 (single isomer, unassigned) [#303]    < 15.8 nM
Cc1cc2c(c(F)n1)-c1cccnc1[C@@H](C)C(=O)N2CC(=O)Nc1ccc(C2(F)CC2)c(F)c1 [#248]    < 15.8 nM
Cc1cc2c(c(F)n1)-c1cccnc1[C@@H](C)C(=O)N2CC(=O)Nc1ccc(Cl)cc1F [#242]    15.8 to 39.8 nM
Cc1cc(F)c2c(c1)N(CC(=O)Nc1ccc(C(F)F)cc1)C(=O)C(C)c1ncncc1-2 (stereo not shown) [#370]    39.8 to 100 nM
O=C(CN1C(=O)Cc2ncccc2-c2cnc(Cl)cc21)Nc1ccc(C(F)(F)F)cc1 [#25]    100 to 501 nM

Query: Requested field: IC50. Item: Cc1cc2c(c(F)n1)-c1cccnc1[C@@H](C)C(=O)N2CC(=O)Nc1ccc(I)cc1 [#138]
Reply: < 15.8 nM

Query: Requested field: IC50. Item: Cc1cc2c(c(F)n1)-c1cccnc1C(C)C(=O)N2CC(=O)Nc1ccc(C(F)F)cc1 (stereo not shown) [#132]
Reply: 39.8 to 100 nM

Query: Requested field: IC50. Item: Cc1cc2c(c(F)n1)-c1cccnc1[C@@H](C)C(=O)N2CC(=O)Nc1ccc(F)c(F)c1 [#140]
Reply: 15.8 to 39.8 nM

Query: Requested field: IC50. Item: Cc1cc2c(c(F)n1)-c1cccnc1[C@@H](C)C(=O)N2CC(=O)Nc1ccc(C2CC2)c(F)c1 [#144]
Reply: 15.8 to 39.8 nM

###

# Target under test: UniProt:Q9UPY5
# Method summary: [^14C]L-Cystine uptake assay
# Type: cell-based
# Set-up: endogenous in cells; host or cells: H4 cells
# Condition context: H4 cells, sodium-free HEPES buffer, 0.5 μM L-[14C]Cystine and 4.5 μM L-Cystine, 1 hour at 37° C.; read-out: pIC50 [^14C] L-Cystine uptake assay (converted)
Reported IC50 is given for each of the following molecules.

Use the examples below as a reference point.
O=C(CN1C(=O)Cc2cccnc2-c2cnc(Cl)cc21)Nc1ccc(Br)c(Cl)c1    100 to 501 nM
CC1C(=O)N(CC(=O)Nc2ccc(C(F)F)cc2)c2cc(N3CC4(CC4)C3)nc(F)c2-c2cccnc21 (single isomer, unassigned)    15.8 to 39.8 nM
Cc1cc2c(c(Cl)n1)-c1cccnc1C(C)C(=O)N2CC(=O)Nc1ccc(Br)cc1F (single isomer, unassigned)    15.8 to 39.8 nM
Cc1cc2c(c(=O)n1C)-c1ccccc1C(C)C(=O)N2CC(=O)Nc1ccc(C(F)F)cc1 (single isomer, unassigned)    < 15.8 nM

Query: Requested field: IC50. Item: Cc1cc2c(c(F)n1)-c1cccnc1C(C)C(=O)N2CC(=O)Nc1ccc(C(F)F)cc1 (stereo not shown)
Reply: < 15.8 nM

###

Reported IC50 is given for each of the following compounds.
# Target under test: system Xc^− (Homo sapiens, UniProt Q9UPY5)
# Sequence (Q9UPY5 1-501): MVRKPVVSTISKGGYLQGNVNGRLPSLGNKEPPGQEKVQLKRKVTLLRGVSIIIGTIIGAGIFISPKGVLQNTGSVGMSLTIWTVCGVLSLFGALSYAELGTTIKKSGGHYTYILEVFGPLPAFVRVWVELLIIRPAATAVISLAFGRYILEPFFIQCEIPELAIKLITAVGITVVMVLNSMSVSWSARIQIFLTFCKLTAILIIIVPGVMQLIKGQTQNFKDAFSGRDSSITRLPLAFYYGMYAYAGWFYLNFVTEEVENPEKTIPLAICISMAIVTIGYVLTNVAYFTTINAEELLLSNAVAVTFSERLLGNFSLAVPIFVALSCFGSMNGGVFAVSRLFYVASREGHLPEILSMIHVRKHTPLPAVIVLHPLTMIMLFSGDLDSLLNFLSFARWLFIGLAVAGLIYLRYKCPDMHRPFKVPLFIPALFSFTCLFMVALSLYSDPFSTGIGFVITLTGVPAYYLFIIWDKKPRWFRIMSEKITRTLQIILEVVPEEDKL
# Sequence (P08195 1-529 partner): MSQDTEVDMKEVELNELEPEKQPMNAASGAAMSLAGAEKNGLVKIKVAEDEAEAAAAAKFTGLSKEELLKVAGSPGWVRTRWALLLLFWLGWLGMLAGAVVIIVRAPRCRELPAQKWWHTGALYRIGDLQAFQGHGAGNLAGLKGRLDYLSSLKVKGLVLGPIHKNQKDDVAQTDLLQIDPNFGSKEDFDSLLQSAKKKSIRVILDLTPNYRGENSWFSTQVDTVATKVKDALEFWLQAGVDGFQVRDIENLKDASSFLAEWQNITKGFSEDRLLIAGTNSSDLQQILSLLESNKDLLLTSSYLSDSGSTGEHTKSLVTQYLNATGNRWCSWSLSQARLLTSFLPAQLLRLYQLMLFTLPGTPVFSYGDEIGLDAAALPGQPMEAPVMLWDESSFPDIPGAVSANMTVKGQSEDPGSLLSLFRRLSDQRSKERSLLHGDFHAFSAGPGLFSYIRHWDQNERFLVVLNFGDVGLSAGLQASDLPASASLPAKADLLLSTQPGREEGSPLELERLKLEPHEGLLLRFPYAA
# Method summary: Cystine-induced glutamate release assay
# Format: cell-based
# Set-up: endogenous in cells; host or cells: H4 cells
# Condition context: H4 cells, sodium-free HEPES buffer, 50 μM L-Cystine, 2 hours, Amplex Red glutamate readout; read-out: pIC50 Cystine-induced glutamate release assay (converted)

Cc1cc2c(c(=O)o1)-c1cccnc1C(C)C(=O)N2CC(=O)Nc1ccc(C(F)F)cc1 (single isomer, unassigned)    0.0158 to 0.0398 µM
Cc1cc2c(cn1)-c1cncnc1C(C)C(=O)N2CC(=O)Nc1ccc(Cl)c(F)c1 (single isomer, unassigned)    0.0158 to 0.0398 µM
CC1C(=O)N(CC(=O)Nc2ccc(C(F)F)cc2)c2cc(N3CC[C@@H]3CO)nc(F)c2-c2cccnc21 (some centres unmarked)    < 0.0158 µM
COc1cc(F)c2c(c1)N(CC(=O)Nc1ccc(C(F)F)cc1)C(=O)C(C)c1ncccc1-2 (single isomer, unassigned)    < 0.0158 µM

--- query ---
Query: Requested field: IC50. Item: CC1C(=O)N(CC(=O)Nc2ccc(Cl)c(F)c2)c2cc(C#N)c(F)cc2-c2cccnc21 (single isomer, unassigned)
Reply: 0.0158 to 0.0398 µM

###

# Target under test: UniProt:Q9UPY5
# Method summary: [^14C]L-Cystine uptake assay
# Assay type: cell-based
# Parameters: endogenous in cells; host or cells: H4 cells
# Condition context: H4 cells, sodium-free HEPES buffer, 0.5 μM L-[14C]Cystine and 4.5 μM L-Cystine, 1 hour at 37° C.; read-out: pIC50 [^14C] L-Cystine uptake assay (converted)
Value kind: IC50

Cc1cc2c(c(F)n1)-c1cccnc1C(C)C(=O)N2CC(=O)Nc1ccc(Cl)c(F)c1 (centres unmarked) [#90]    < 0.0158 µM
COc1nc(C)cc2c1-c1cnnn1CC(=O)N2CC(=O)Nc1ccc(C(F)(F)F)cc1 [#74]    0.1 to 0.501 µM
Cc1cc2c(c(F)n1)-c1cccnc1[C@@H](C)C(=O)N2CC(=O)Nc1ccc(C2CC2(F)F)cc1 (single isomer, unassigned) [#146]    0.1 to 0.501 µM
Cc1cc2c(c(F)n1)-c1cccnc1[C@@H](C)C(=O)N2CC(=O)Nc1ccc(C(F)F)cc1 [#151]    < 0.0158 µM
COC1C(=O)N(CC(=O)Nc2ccc(C(F)(F)F)cc2)c2cc(C)nc(Cl)c2-c2cccnc21 (centres unmarked) [#159]    0.0158 to 0.0398 µM
Cc1cncc2c1-c1ccccc1CC(=O)N2CC(=O)Nc1ccc(C(F)(F)F)cc1 [#45]    0.1 to 0.501 µM

Query: Requested field: IC50. Item: CC(=O)N(C)c1nc2c(s1)-c1ccccc1CC(=O)N2CC(=O)Nc1ccc(C(F)(F)F)cc1 [#118]
Reply: 0.0398 to 0.1 µM

Query: Requested field: IC50. Item: Cc1cc2c(c(F)n1)-c1cncnc1C(C)C(=O)N2CC(=O)Nc1ccc(C(F)(F)F)cc1 (centres unmarked) [#112]
Reply: < 0.0158 µM

Query: Requested field: IC50. Item: Cc1cc2c(c(F)n1)-c1cccnc1CC(=O)N2CC(=O)Nc1ccc(C(F)(F)F)cc1 [#40]
Reply: < 0.0158 µM

Query: Requested field: IC50. Item: Cc1cc2c(c(O)n1)-c1cccnc1C(C)C(=O)N2CC(=O)Nc1ccc(C(F)(F)F)cc1 (single isomer, unassigned) [#161]
Reply: 0.0158 to 0.0398 µM

Query: Requested field: IC50. Item: CC1C(=O)N(CC(=O)Nc2ccc(Cl)c(F)c2)c2cc(C3CC3)c(=O)n(C)c2-c2ccccc21 (centres unmarked) [#321]
Reply: 0.0158 to 0.0398 µM

Every entry's value here was drawn from patent US20260217708A1.
